inhibition at 0.5 µM: recorded values
- target_under_test: MMP-12 (Homo sapiens)
- test_summary: MMP-12 Fluorometric Drug Discovery Kit inhibition assay
- Type: biochemical
- Set-up: purchased Enzo Life Sciences Inc., Farmingdale, N.Y., USA
- settings: 0.5 μM; read-out: % Inhibition after 20 min

[[record]]
compound = "CCC(C)[C@H](NC(=O)[C@H](Cc1ccc(-c2ccccc2)cc1)CP(=O)(O)CCc1ccccc1)C(=O)O (some centres unmarked)"
endpoint = "inhibition at 0.5 µM"
assay_value = "94%"

[[record]]
compound = "C[C@H](NC(=O)[C@H](Cc1ccc(-c2ccccc2)cc1)CP(=O)(O)CCc1ccccc1)C(=O)O"
endpoint = "inhibition at 0.5 µM"
assay_value = "93%"

[[record]]
compound = "O=C(N[C@@H](Cc1c[nH]c2ccccc12)C(=O)O)[C@@H](Cc1ccc(-c2ccccc2)cc1)CP(=O)(O)CCc1ccccc1"
endpoint = "inhibition at 0.5 µM"
assay_value = "69%"

[[record]]
compound = "COC(=O)[C@H](CCNC(=O)OC(C)(C)C)NC(=O)[C@@H](Cc1ccc(-c2ccccc2)cc1)CP(=O)(O)CCc1ccccc1"
endpoint = "inhibition at 0.5 µM"
assay_value = "85%"


Let's switch to this compound now.
[Q] Field request: inhibition at 0.5 µM | item: O=C(N[C@@H](Cc1c[nH]c2ccccc12)C(=O)O)[C@H](Cc1ccc(-c2ccccc2)cc1)CP(=O)(O)CCc1ccccc1
[A] 93%

====

- target_under_test: MMP-12 (Homo sapiens, UniProt P39900)
- Sequence (P39900 106-263 limits assumed): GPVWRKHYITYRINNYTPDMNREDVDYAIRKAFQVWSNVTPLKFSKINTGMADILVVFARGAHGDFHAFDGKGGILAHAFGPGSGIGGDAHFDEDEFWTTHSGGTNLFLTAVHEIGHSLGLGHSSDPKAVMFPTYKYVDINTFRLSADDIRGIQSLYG
- test_summary: MMP-12 Fluorometric Drug Discovery Kit inhibition assay
- Format: biochemical
- Design: purchased Enzo Life Sciences Inc., Farmingdale, N.Y., USA
- settings: 10 μM; read-out: % Inhibition after 20 min
inhibition at 10 µM: recorded values
Numeric only. Scale: %

# count of solved cases: 5
[[record]]
compound = "CC(C)(C)OC(=O)[C@H](Cc1cn(C(=O)OC(C)(C)C)c2ccccc12)NC(=O)C(Cc1ccc(-c2ccccc2)cc1)CP(=O)(O)CCc1ccccc1 (stereo partly shown) [(I)-R]"
result_unit = "%"
assay_value = 82

[[record]]
compound = "COC(=O)[C@H](Cc1csc2ccccc12)NC(=O)[C@H](Cc1ccc(-c2ccccc2)cc1)CP(=O)(O)CCc1ccccc1 [(I)-A]"
result_unit = "%"
assay_value = 92

[[record]]
compound = "CCCC[C@H](NC(=O)[C@H](Cc1ccc(-c2ccccc2)cc1)CP(=O)(O)CCc1ccccc1)C(=O)OC [(I)-H]"
result_unit = "%"
assay_value = 91

[[record]]
compound = "O=C(N[C@@H](Cc1ccc2ccccc2c1)C(=O)O)[C@@H](Cc1ccc(-c2ccccc2)cc1)CP(=O)(O)CCc1ccccc1 [(I)-G]"
result_unit = "%"
assay_value = 91

[[record]]
compound = "O=C(N[C@@H](Cc1csc2ccccc12)C(=O)O)[C@@H](Cc1ccc(-c2ccccc2)cc1)CP(=O)(O)CCc1ccccc1 [(I)-M]"
result_unit = "%"
assay_value = 89


[Q] Field request: inhibition at 10 µM | item: NC(=O)C[C@H](NC(=O)[C@@H](Cc1ccc(-c2ccccc2)cc1)CP(=O)(O)CCc1ccccc1)C(=O)O [(I)-I]
[A] 90

[Q] Field request: inhibition at 10 µM | item: COC(=O)C(C)(C)NC(=O)C(Cc1ccc(-c2ccccc2)cc1)CP(=O)(O)CCc1ccccc1 (stereo not shown) [(I)-V]
[A] 61

====

- target_under_test: MMP-12 (Homo sapiens)
- test_summary: MMP-12 Fluorometric Drug Discovery Kit inhibition assay
- Type: biochemical
- Set-up: purchased Enzo Life Sciences Inc., Farmingdale, N.Y., USA
- settings: 0.5 μM; read-out: % Inhibition after 20 min
Binary classification by inhibition at 0.5 µM, with 80% as an inclusive lower bound for Criterion met; all other cases are Criterion not met.

Example entries begin here.
[[record]]
compound = "O=C(N[C@@H](Cc1csc2ccccc12)C(=O)O)[C@@H](Cc1ccc(-c2ccccc2)cc1)CP(=O)(O)CCc1ccccc1 [(I)-M]"
cat = "Criterion not met"

[[record]]
compound = "CCCC[C@H](NC(=O)[C@H](Cc1ccc(-c2ccccc2)cc1)CP(=O)(O)CCc1ccccc1)C(=O)OC [(I)-H]"
cat = "Criterion met"

[[record]]
compound = "CC(C)C[C@H](NC(=O)[C@H](Cc1ccc(-c2ccccc2)cc1)CP(=O)(O)CCc1ccccc1)C(=O)OC(C)(C)C [(I)-F]"
cat = "Criterion not met"

[[record]]
compound = "O=C(O)CCCNC(=O)C(Cc1ccc(-c2ccccc2)cc1)CP(=O)(O)CCc1ccccc1 (stereo not shown) [(I)-L]"
cat = "Criterion not met"

[[record]]
compound = "NC(=O)C[C@H](NC(=O)[C@@H](Cc1ccc(-c2ccccc2)cc1)CP(=O)(O)CCc1ccccc1)C(=O)O [(I)-I]"
cat = "Criterion met"


[Q] # check: inhibition at 0.5 µM of COC(=O)[C@H](Cc1csc2ccccc12)NC(=O)[C@H](Cc1ccc(-c2ccccc2)cc1)CP(=O)(O)CCc1ccccc1 [(I)-A] is greater than or equal to 80%
[A] Criterion not met

====

- target_under_test: MMP-12 (Homo sapiens)
- test_summary: MMP-12 Fluorometric Drug Discovery Kit inhibition assay
- Assay type: biochemical
- Design: purchased Enzo Life Sciences Inc., Farmingdale, N.Y., USA
- settings: 10 μM; read-out: % Inhibition after 20 min
inhibition at 10 µM: recorded values
Numeric only. Scale: %

# count of solved cases: 4
[[record]]
molecule = "COC(=O)[C@H](CCNC(=O)OC(C)(C)C)NC(=O)[C@@H](Cc1ccc(-c2ccccc2)cc1)CP(=O)(O)CCc1ccccc1 [(I)-D]"
assay_value = 91

[[record]]
molecule = "NC(=O)C[C@H](NC(=O)[C@H](Cc1ccc(-c2ccccc2)cc1)CP(=O)(O)CCc1ccccc1)C(=O)O [(I)-O]"
assay_value = 88

[[record]]
molecule = "O=C(O)CCCNC(=O)C(Cc1ccc(-c2ccccc2)cc1)CP(=O)(O)CCc1ccccc1 (centres unmarked) [(I)-L]"
assay_value = 90

[[record]]
molecule = "CC(C)C[C@H](NC(=O)[C@H](Cc1ccc(-c2ccccc2)cc1)CP(=O)(O)CCc1ccccc1)C(=O)OC(C)(C)C [(I)-F]"
assay_value = 91


[Q] Field request: inhibition at 10 µM | item: O=C(N[C@@H](Cc1c[nH]c2ccccc12)C(=O)O)[C@@H](Cc1ccc(-c2ccccc2)cc1)CP(=O)(O)CCc1ccccc1 [(I)-K]
[A] 90

[Q] Field request: inhibition at 10 µM | item: CCCC[C@H](NC(=O)[C@@H](Cc1ccc(-c2ccccc2)cc1)CP(=O)(O)CCc1ccccc1)C(=O)O [(I)-N]
[A] 89

[Q] Field request: inhibition at 10 µM | item: O=C(N[C@@H](Cc1c[nH]c2ccccc12)C(=O)O)[C@H](Cc1ccc(-c2ccccc2)cc1)CP(=O)(O)CCc1ccccc1 [(I)-C]
[A] 92

[Q] Field request: inhibition at 10 µM | item: O=C(N[C@@H](Cc1ccc2ccccc2c1)C(=O)OCc1ccccc1)[C@H](Cc1ccc(-c2ccccc2)cc1)CP(=O)(O)CCc1ccccc1 [(I)-Q]
[A] 83

[Q] Field request: inhibition at 10 µM | item: CC[C@@H](C)[C@H](NC(=O)[C@H](Cc1ccc(-c2ccccc2)cc1)CP(=O)(O)CCc1ccccc1)C(=O)OC(C)(C)C [(I)-U]
[A] 72

[Q] Field request: inhibition at 10 µM | item: COC(=O)[C@@H](NC(=O)[C@H](Cc1ccc(-c2ccccc2)cc1)CP(=O)(O)CCc1ccccc1)C1CCCCC1 [(I)-S]
[A] 82

[Q] Field request: inhibition at 10 µM | item: CC[C@@H](C)[C@H](NC(=O)[C@@H](Cc1ccc(-c2ccccc2)cc1)CP(=O)(O)CCc1ccccc1)C(=O)OC(C)(C)C [(I)-T]
[A] 75

[Q] Field request: inhibition at 10 µM | item: CC[C@H](NC(=O)[C@H](Cc1ccc(-c2ccccc2)cc1)CP(=O)(O)CCc1ccccc1)C(=O)OC(C)(C)C [(I)-P]
[A] 88

[Q] Field request: inhibition at 10 µM | item: CCC(C)[C@H](NC(=O)[C@H](Cc1ccc(-c2ccccc2)cc1)CP(=O)(O)CCc1ccccc1)C(=O)O (some centres unmarked) [(I)-B]
[A] 92

[Q] Field request: inhibition at 10 µM | item: C[C@H](NC(=O)[C@H](Cc1ccc(-c2ccccc2)cc1)CP(=O)(O)CCc1ccccc1)C(=O)O [(I)-J]
[A] 90

====

- target_under_test: MMP-12 (Homo sapiens, UniProt P39900)
- test_summary: MMP-12 Fluorometric Drug Discovery Kit inhibition assay
- Type: biochemical
- Set-up: purchased Enzo Life Sciences Inc., Farmingdale, N.Y., USA
- settings: 1 μM; read-out: % Inhibition after 20 min
- Excerpt: The MMP-12 inhibitor activity was quantified by fluorometric analysis using the MMP-12 Fluorometric Drug Discovery Kit (Enzo Life Sciences Inc., Farmingdale, N.Y., USA) according to the manufacturers' instructions.
Binary classification by inhibition at 1 µM, with 90% as an inclusive lower bound for 1.0; all other cases are 0.0.

Example entries begin here.
[[record]]
molecule = "O=C(N[C@@H](Cc1c[nH]c2ccccc12)C(=O)O)[C@H](Cc1ccc(-c2ccccc2)cc1)CP(=O)(O)CCc1ccccc1"
cat = 1.0

[[record]]
molecule = "O=C(N[C@@H](Cc1ccc2ccccc2c1)C(=O)O)[C@@H](Cc1ccc(-c2ccccc2)cc1)CP(=O)(O)CCc1ccccc1"
cat = 0.0

[[record]]
molecule = "C[C@H](NC(=O)[C@H](Cc1ccc(-c2ccccc2)cc1)CP(=O)(O)CCc1ccccc1)C(=O)O"
cat = 1.0


[Q] # check: inhibition at 1 µM of COC(=O)[C@H](Cc1csc2ccccc12)NC(=O)[C@H](Cc1ccc(-c2ccccc2)cc1)CP(=O)(O)CCc1ccccc1 is greater than or equal to 90%
[A] 0.0

[Q] # check: inhibition at 1 µM of CCC(C)[C@H](NC(=O)[C@H](Cc1ccc(-c2ccccc2)cc1)CP(=O)(O)CCc1ccccc1)C(=O)O (stereo partly shown) is greater than or equal to 90%
[A] 1.0
